# key: entry, value: cell viability
- Test system: MARIMO;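 further: after 48 h exposure read by CellTiter-Glo luminescence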
- Experiment: cell viability relative to vehicle control; higher = less cytotoxic
- Condition notes: 10 µM; SRSF2 genotype: SRSF2 P95H/wt
Form entry: value (%) — number only.

Compound | Unit descriptor | cell viability
N#CSc1cc(SC#N)c(N)nc1N | % | 4.65
CC(C)=CCCC(C)(O)C1CCC2(C)C1C(O)CC1C3(C)CCC(OC4OC(CO)C(O)C(O)C4OC4OC(CO)C(O)C(O)C4O)C(C)(C)C3CCC12C [(20R)Ginsenoside Rg3] | % | 107
OC[C@H]1O[C@H](OC[C@H]2O[C@H](OC[C@H]3O[C@H](O[C@]4(CO)O[C@H](CO)[C@@H](O)[C@@H]4O)[C@H](O)[C@@H](O)[C@@H]3O)[C@H](O)[C@@H](O)[C@H]2O)[C@H](O)[C@@H](O)[C@H]1O [Stachyose] | % | 102
CCC(=O)O[C@]1(C(=O)CCl)[C@@H](C)C[C@H]2[C@@H]3CCC4=CC(=O)C=C[C@]4(C)[C@@]3(F)[C@@H](O)C[C@@]21C [Clobetasol propionate] | % | 85.1
OCC1OC(OC2OC(CO)C(O)C(O)C2O)C(O)C(O)C1O [D-(+)-Trehalose Anhydrous] | % | 111

Bench note, MARIMO: COc1ccc(/C=C/c2cc(O)cc(O)c2)cc1O [Rhapontigenin] , cell viability reads 101

Bench note, MARIMO: CC(=O)OCC(=O)[C@@]12N=C(C)O[C@@H]1C[C@H]1[C@@H]3CCC4=CC(=O)C=C[C@]4(C)[C@H]3[C@@H](O)C[C@@]12C [Deflazacort (Calcort)] , cell viability reads 95

Bench note, MARIMO: COc1ccc(/C=C/c2cc(OC)cc(=O)o2)cc1 [Yangonin] , cell viability reads 97.7

Bench note, MARIMO: O=C(O)c1cn(C2CC2)c2cc(Cl)c(F)cc2c1=O [Fluoroquinolonic Acid] , cell viability reads 97.5

Bench note, MARIMO: CC(=O)Nc1nc2c(Oc3cc(-c4ccc(C(F)(F)F)cc4)ncn3)cccc2s1 , cell viability reads 93.3
